assay: pH dependence of solubility of LMT.2MsOH in buffered aqueous solutions at 25° C.
Format: physicochemical
measurement.parameters: aqueous buffer, thermodynamic from solid; buffered aqueous solution pH 7.07, 25° C.
test.readout: solubility at 10 min

# return recorded solubility at 10 min for entry CN(C)c1ccc2c(c1)Sc1cc(N(C)C)ccc1N2.CS(=O)(=O)O.CS(=O)(=O)O [LMT.2MsOH]
2030 to 2110 mg/mL

* * *

target.desc: truncated tau (amino acids 297-391) in solution binding to solid-phase bound truncated tau (residues 297-390) (Homo sapiens, UniProt P10636)
Sequence (P10636 614-708): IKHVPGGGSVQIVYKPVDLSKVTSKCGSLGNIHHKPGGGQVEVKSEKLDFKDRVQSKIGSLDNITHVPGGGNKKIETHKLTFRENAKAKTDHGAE
Sequence (P10636 614-707): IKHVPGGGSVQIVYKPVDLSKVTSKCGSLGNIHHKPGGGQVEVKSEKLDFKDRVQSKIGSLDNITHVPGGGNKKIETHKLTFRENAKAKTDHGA
assay: Solid phase assay for tau aggregation (tau-tau binding, B50)
measurement.parameters: concentration at which tau-tau binding is decreased by 50%; mean ± SE
test.readout: IC50 (µM)
Kindly answer with a numeric value in µM, unit omitted.

Previously resolved entries follow.
CN(C)c1ccc2c(c1)Sc1cc(N(C)C)ccc1N2 [LMT.NDSA]: 334
CN(C)c1ccc2c(c1)Sc1cc(N(C)C)ccc1N2 [LMT.EDSA]: 400
CN(C)c1ccc2c(c1)Sc1cc(N(C)C)ccc1N2 [LMT.2TsOH, bis(p-toluenesulfonate)]: 296
CN(C)c1ccc2c(c1)Sc1cc(N(C)C)ccc1N2 [LMT.2EsOH]: 297
CN(C)c1ccc2c(c1)Sc1cc(N(C)C)ccc1N2 [LMT.2HBr]: 472

# return recorded IC50 for entry CN(C)c1ccc2c(c1)Sc1cc(N(C)C)ccc1N2.CS(=O)(=O)O.CS(=O)(=O)O [LMT.2MsOH, bis(methanesulfonate)]
238

# return recorded IC50 for entry CN(C)c1ccc2c(c1)Sc1cc(N(C)C)ccc1N2.Cl.Cl [LMT.2HCl]
361
